# System: interferon-α
# measurement.notes: Interferon-α induction in human cells, PBM
# Assay type: cell-based
# reported.conditions: dose concentration 0.10 μg/mL, 24 hours
parameter.measured: Interferon-α induction

// recorded Interferon-α induction for CCCCC(OC)c1nc2c(N)nc3ccccc3c2n1CC(C)C (stereo not drawn) : 64 α Reference Units/mL

For COCc1nc2c(N)nc3ccccc3c2n1CC(C)(C)O [Example 111] the compound record lists Interferon-α induction as 65 α Reference Units/mL

---

# Test system: vesicular stomatitis virus (VSV)
# measurement.notes: microbe, parasite or virus in culture
# Assay type: cell-based
# reported.conditions: Vesicular stomatitis virus, read-out: VSV Yield Inhibition
parameter.measured: log reduction at 0.5 µg/mL
Please state the value as a number alone, without comment.

// solved cases for log reduction at 0.5 µg/mL follow
• CCOCc1nc2c(N)nc3ccccc3c2n1CCCOC [Example 44] = 4
• COC(C)c1nc2c(N)nc3ccccc3c2n1CC(C)C (stereo not drawn) [Example 66] = 2
• CCOCc1nc2c(N)nc3cc(Cl)ccc3c2n1CC(C)(C)O [Example 85] = 5
• COCCc1nc2c(N)nc3ccccc3c2n1CC(C)C [Example 72] = 5
• CCOCc1nc2c(N)nc3ccccc3c2n1CC(C)(C)O [Example 99] = 5
• COC(c1ccccc1)c1nc2c(N)nc3ccccc3c2n1CC(C)C (stereo not drawn) [Example 51] = 1
• CC(C)Cn1c(CC(C)O)nc2c(N)nc3ccccc3c21 (stereo not drawn) [Example 81] = 4
• Nc1nc2ccccc2c2c1nc(CO)n2Cc1ccccc1 [Example 27] = 3

// compound COCc1nc2c(N)nc3ccccc3c2n1CC(C)(C)O [Example 96] , assay vesicular stomatitis virus (VSV), log reduction at 0.5 µg/mL value: 5

Field log reduction at 0.5 µg/mL (vesicular stomatitis virus (VSV)), entry CCOCc1nc2c(N)nc3ccccc3c2n1Cc1ccccc1 [Example 93] : 5

Observed log reduction at 0.5 µg/mL, vesicular stomatitis virus (VSV), COC(C)Cc1nc2c(N)nc3ccccc3c2n1CC(C)C (stereo not drawn) [Example 77] : 5

vesicular stomatitis virus (VSV) log reduction at 0.5 µg/mL of CC(C)(O)Cn1c(CO)nc2c(N)nc3ccccc3c21 [Example 90] is 4

---

# Tested on: interferon
# measurement.notes: Interferon induction in mice
# Format: in vivo
# reported.conditions: mouse serum, oral 1 mg/kg, 4 hr
Reported Interferon induction in mice is given for each of the following compounds.

- Nc1nc2ccccc2c2c1nc(CN1CCOCC1)n2Cc1ccccc1: <45 Reference Units/mL
- CCCCC(c1nc2c(N)nc3ccccc3c2n1CC(C)C)N1CCOCC1 (stereo not shown): <56 Reference Units/mL
- CC(C)Cn1c(C(C)O)nc2c(N)nc3ccccc3c21 (stereo not shown): <47 Reference Units/mL
- Nc1nc2ccccc2c2c1nc(CO)n2Cc1ccccc1: <45 Reference Units/mL
- CCOCc1nc2c(N)nc3ccccc3c2n1CCCOC: <260 Reference Units/mL

Interferon induction in mice recorded for this compound, CC(C)Cn1c(C(O)c2ccccc2)nc2c(N)nc3ccccc3c21 (stereo not shown) , is <260 Reference Units/mL

Reported Interferon induction in mice of CC(C)Cn1c(CO)nc2c(N)nc3ccccc3c21 : <47 Reference Units/mL

Record COCc1nc2c(N)nc3ccccc3c2n1CC(C)(C)O . Reported Interferon induction in mice: 1100 Reference Units/mL

CC(=O)NCc1nc2c(N)nc3ccccc3c2n1CC(C)C has a reported Interferon induction in mice of <120 Reference Units/mL

Measured Interferon induction in mice of CCOCc1nc2c(N)nc3ccccc3c2n1Cc1ccccc1 : 340 Reference Units/mL
